- Measured On: T1, Human IL-33-his (human, UniProt O95760 112-270, biotinylated with EZ-Link NHS-Biotin where used as IL-33-his-biotin)
- T1 construct: Used plain (SPR, cell assays) and biotinylated (ELISA); also called IL-33-his-biotin
- T1 sequence: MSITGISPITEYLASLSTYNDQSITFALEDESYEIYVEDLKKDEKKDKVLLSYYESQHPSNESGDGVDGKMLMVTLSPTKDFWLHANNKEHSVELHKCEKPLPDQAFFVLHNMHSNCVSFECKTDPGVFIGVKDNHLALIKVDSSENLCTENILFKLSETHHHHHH
- Experimental Details: ELISA, IL-33-his-biotin on streptavidin plate, anti-human Fc detection
Quantity Measured: EC50 (nM)
Entry rule: numbers only, all in nM.

Previously resolved entries follow.
874F7-ch (antibody, human IgG4 S228P, kappa, V domains shown, Chimeric: human IgG4 (S228P) and human kappa constant regions; also called chimeric antibody 874F7-ch) VH: QVQLKESGPGLVAPSHSLSITCNVSGFSLSKYGVHWIRQIPGRGLDWLGVLRAGGSTGYNSALMSRLSISKDSSKSQVFLKMNDLRTDDTAVYFCVRDHYYYSSYGGFVYWGQGTLVTVSA VL: DIQMTQSPASQSASLGESVTITCLASQTIGAWLAWYRQQPGKSPQLLIYAATRLADGVPSRFSGSGSGTEFSFKINNLQAEDFVSYYCQQLDSSPYTFGGGTRLEMRT = 0.144
864F3-ch2 (antibody, human IgG4 S228P, kappa, V domains shown, Chimeric: human IgG4 (S228P) and human kappa constant regions; also called chimeric antibody 864F3-ch2) VH: QVHLKESGPGLVAPSQSLSITCNVSGFSLSKYGVHWIRQTPGRGLDWLGVLRAGGTISYNSALMSRLSISEDISKSQVFLKMNDLQTDDSAIYFCARDHYYYSSFGGFASWGQGTLVTVSA VL: DIQMTQSPASQSASLGESVTITCLASQTIATWLAWYQQKPGKSPQLLIYAATRLADGVPSRFSGSGSGTEFSFKISSLQAEDFVIYYCQQLYNTPYTFGGGTKLEIKR = 0.173
871G1-ch (antibody, human IgG4 S228P, kappa, V domains shown, Chimeric: human IgG4 (S228P) and human kappa constant regions; also called chimeric antibody 871G1-ch) VH: QVHLKESGPGLVAPSQSLSITCNVSGFSLSKYGVHWIRQTPGRGLDWLGVLRAGGTISYNSALMSRLSISEDISKSQVFLKMNDLQTDDSAIYFCARDHYYYSSFGGFASWGQGTLVTVSA VL: DIQMTQSPASQSASLGESVTITCLASQTIGAWLAWYRQQPGKSPQLLIYAATRLADGVPSRFSGSGSGTKFSFKINNLQAEDFVIYYCQQLNSTPYTFGGGTRLEMRT = 0.178

# next binder below
Query :: Which EC50 is reported for this binder? 864F3-ch1 (antibody, human IgG4 S228P, kappa, V domains shown, Chimeric: murine variable regions on human IgG4 (S228P) and human kappa constant regions; also called chimeric antibody 864F3-ch1) VH: QVQLKESGPGLVAPSQSLSITCTVSGFSLTNYGVHWVRLPPGKGLEWLGVIRAGGSSDYNSALMSRLNIRKDNSKSQVFLEMNSLQTADTAMYYCARDHYFSNSYGGSPYWGQGTLVTVSA VL: DIQMTQSPASQSASLGESVTITCLASQTIATWLAWYQQKPGKSPQLLIYAATRLADGVPSRFSGSGSGTEFSFKISSLQAEDFVIYYCQQLYNTPYTFGGGTKLEIKR
Result :: 0.127

Origin of measurements: patent US20230399394A1
